Test system: RXF 393 renal
experiment.description: NCI-60 one-dose screen, 48 h (100 = growth as untreated, 0 = no growth, -100 = all killed)
stated.conditions: 10 µM unless noted
This is part of a sample that, as a whole, favours compounds with a hit. Of some 83,000 tested, about 20% had one in any assay.
test.readout: growth (%)
Numbers only here, please. The scale is %.

# input Tell me the measured growth of CC12CCC3c4ccc(O)cc4CCC3C1CCC2=O (configuration not stated) , please.
# output 103

# input Tell me the measured growth of `CCCCN(C=S)CCCC` , please.
# output 101

# input Tell me the measured growth of CC(C)(C)NCCC(O)c1cc(C(F)(F)F)nc2c(C(F)(F)F)cccc12 (configuration not stated) , please.
# output 73.3

# input Tell me the measured growth of C=CCC(OC(C)=O)c1ccc(OC)c(OC)c1 (configuration not stated) , please.
# output 124

# input Tell me the measured growth of `CC1(C)CC(=O)C=C(N)C1` , please.
# output 94.4

# input Tell me the measured growth of `NC(=O)NCCO` , please.
# output 102

# input Tell me the measured growth of `Cc1cc(C(=O)NN)c(C#N)c(=O)[nH]1` , please.
# output 99.5

---

Tested on: K-562 leukemia
experiment.description: NCI-60 one-dose screen, 48 h (100 = growth as untreated, 0 = no growth, -100 = all killed)
stated.conditions: 10 µM unless noted
This is part of a sample that, as a whole, favours compounds with a hit. Of some 83,000 tested, about 20% had one in any assay.
test.readout: growth (%)
Numbers only here, please. The scale is %.

# input Reported growth for K-562 leukemia, given `C1C[S+]2CC[S+]1CC2` ?
# output 104

# input Reported growth for K-562 leukemia, given CC12CCC3c4ccc(O)cc4CCC3C1CCC2=O (stereo not given) ?
# output 93.9

# input Reported growth for K-562 leukemia, given `O=C(CCl)Nc1ccccc1SCc1cc(Cl)cc2c1OCOC2` ?
# output 32.1

# input Reported growth for K-562 leukemia, given `NC(CO)(CO)c1ccccc1` ?
# output 111

# input Reported growth for K-562 leukemia, given `Cn1c(=O)[nH]c2ccccc2c1=O` ?
# output 103

# input Reported growth for K-562 leukemia, given `Oc1ccc(N=Cc2ccc(OCc3ccccc3)cc2)cc1` ?
# output 120

# input Reported growth for K-562 leukemia, given CC(C)C1CCC(C)C(O)C1 (stereo not given) ?
# output 103

# input Reported growth for K-562 leukemia, given `CSc1nsc(N)n1` ?
# output 113

# input Reported growth for K-562 leukemia, given `O=S(=O)(O)c1cccnc1` ?
# output 105

# input Reported growth for K-562 leukemia, given `CCOC(=O)c1cc(C)[nH]c(=O)c1C#N` ?
# output 82.6

# input Reported growth for K-562 leukemia, given Nc1ccccc1SC1CC(=O)N(c2ccc(Cl)c(Cl)c2)C1=O (stereo not given) ?
# output 122

# input Reported growth for K-562 leukemia, given CC1CN(CCO)CC(C)O1 (stereo not given) ?
# output 98.9

# input Reported growth for K-562 leukemia, given `CCCCNC(=O)c1ccc(OCC)cc1` ?
# output 112

# input Reported growth for K-562 leukemia, given C=CCC(O)C=C (stereo not given) ?
# output 91.4

# input Reported growth for K-562 leukemia, given CCN1CCCC(N2c3ccccc3Sc3ccccc32)C1 (stereo not given) ?
# output 91.8

---

Test system: K-562 leukemia
experiment.description: NCI-60 one-dose screen, 48 h (100 = growth as untreated, 0 = no growth, -100 = all killed)
stated.conditions: 10 µM unless noted
About 83,000 compounds went through this panel and 20% of them were active in at least one assay; those are over-represented in the sample as a whole. Calls of active or inactive are those of the source. The calls were made as follows: active = growth percent below 10; inactive = the rest.
Can you tell me growth for the items I'm about to list?

# input Tell me the measured growth of `O=S1(=O)c2ccccc2Oc2ccccc21` , please.
# output 114% (inactive)

# input Tell me the measured growth of `CCCCOC(=O)c1ccc(NC(=O)CCl)cc1` , please.
# output 5.65% (active)

# input Tell me the measured growth of `CCCCCC#CC(=O)O` , please.
# output 103% (inactive)

# input Tell me the measured growth of `CC(C)C(C)(C)C(=O)C(C)(C)C(C)(C)C` , please.
# output 96.8% (inactive)

# input Tell me the measured growth of `O=c1cc(Cl)nc2ccccn12` , please.
# output 110% (inactive)

# input Tell me the measured growth of `CCOc1ccc(C(=O)O)cc1` , please.
# output 115% (inactive)

# input Tell me the measured growth of Nc1ccn(C2OC(CO)C(O)C2F)c(=O)n1 (centres undefined) , please.
# output 83.7% (inactive)

# input Tell me the measured growth of `CN(C)CCOC(=O)Nc1ccc(Cc2ccc(NC(=O)OCCN(C)C)cc2)cc1` , please.
# output -30.1% [100 µM] (active)

# input Tell me the measured growth of `CC(=O)NCNC(C)=O` , please.
# output 112% (inactive)

# input Tell me the measured growth of `COC(=O)c1ccc([N+](=O)[O-])c(C)c1` , please.
# output 134% (inactive)

# input Tell me the measured growth of `COc1ccc(-c2csc(NC(=O)Nc3nc(-c4ccc(OC)cc4)cs3)n2)cc1` , please.
# output 67.5% (inactive)

# input Tell me the measured growth of `CCCCCCCCCCCCCCCCCCSC(=N)N` , please.
# output 40.4% (inactive)

# input Tell me the measured growth of `Cc1cc(NC(=O)c2ccccc2)c(Cl)cc1N` , please.
# output 98.8% (inactive)

# input Tell me the measured growth of `C=CCS(C)(=O)=O` , please.
# output 103% (inactive)

---

Tested on: KM12 colon
experiment.description: NCI-60 one-dose screen, 48 h
stated.conditions: 10 µM unless noted
About 83,000 compounds went through this panel and 20% of them were active in at least one assay; those are over-represented in the sample as a whole. Active and inactive are the calls of the source. How the source made its calls: active means growth percent below 10; inactive means the rest.
Parameter call: string, one of active, inactive

# input Record request — test call for `Cn1c(=O)c2[nH]c(CCCCC(=O)O)nc2n(C)c1=O`
# output inactive

# input Record request — test call for `CCNC(=O)OCCc1c2ccccc2nc2ccccc12`
# output inactive

# input Record request — test call for `CC(=O)c1cccc(O)c1`
# output inactive

# input Record request — test call for `CN(CCCN(C)CCC1CCCCC1)CCC1CCCCC1`
# output inactive

# input Record request — test call for `COc1nc2ccccc2s1`
# output inactive

# input Record request — test call for `CCNCC(C)(C)O`
# output inactive

# input Record request — test call for ClCC(Cl)[C@@H]1CC2C=CC1C2 (stereo not given in full)
# output inactive

# input Record request — test call for CC1(C)OC2C(CO)OC(n3ccc(=O)[nH]c3=O)C2O1 (stereo not given)
# output inactive

# input Record request — test call for `C/C(O)=C(/C=N/C(=S)Nc1ccccc1)C(=O)Nc1ccccc1C`
# output inactive

# input Record request — test call for `OC(CCN1CCCCC1)(c1ccccc1)c1ccccc1`
# output inactive

# input Record request — test call for `C1=NCCc2ccccc21`
# output inactive

# input Record request — test call for CN1CCCN(C(c2ccccc2)c2ccc(Br)cc2)CC1 (stereo not given)
# output inactive

# input Record request — test call for CC(=O)NC(CCC(=O)c1ccccc1)C(=O)O (stereo not given)
# output inactive

# input Record request — test call for `CCOC(=O)c1ccc(NC(C)=O)o1`
# output inactive

# input Record request — test call for `O=C1C=CC(=O)C2=C1CCCC2`
# output inactive

# input Record request — test call for `CC(=O)CSc1ncnc2nc[nH]c12`
# output inactive

# input Record request — test call for `Cn1c(=O)[nH]c2ccccc2c1=O`
# output inactive

# input Record request — test call for `CC(=O)c1cccc(NS(=O)(=O)c2ccc(C)cc2)c1`
# output inactive

# input Record request — test call for `COc1ccc(Nc2cc(Cl)ccc2C(=O)O)cn1`
# output inactive

# input Record request — test call for `O=S(=O)(O)c1cccc2cccnc12`
# output inactive

# input Record request — test call for `CCOC(=O)CNC(=O)Sc1ccc(C(C)(C)C)cc1`
# output inactive

# input Record request — test call for `COc1ccc(C(=O)/C(=N/Nc2ccccc2)c2ccc(OC)cc2)cc1`
# output inactive

# input Record request — test call for `Cc1ccc(C(C)C)c(OCC(=O)O)c1`
# output inactive

# input Record request — test call for `N#Cc1ccc2nc[nH]c2c1`
# output inactive

# input Record request — test call for COC(=O)C1(CC(C)=O)NC(=S)NC(=O)C1C#N (stereo not given)
# output inactive

# input Record request — test call for CC(=O)OCC1CCC(COC(C)=O)CC1 (stereo not given)
# output inactive

# input Record request — test call for `Nc1nc(N)nc(N2CCCCC2)n1`
# output inactive

# input Record request — test call for `C=CCS(C)(=O)=O`
# output inactive

# input Record request — test call for `O=C(CCl)Oc1ccc([N+](=O)[O-])cc1`
# output inactive

# input Record request — test call for N#CCCN1C(=O)CCC1C(=O)O (stereo not given)
# output inactive

# input Record request — test call for C=CC1=NC(C)(C)CC(C)O1 (stereo not given)
# output inactive

# input Record request — test call for COc1cc2c(c(OC)c1OC)-c1ccc(SC)c(=O)cc1[C@@H](NC1OC(CO)C(O)C(O)C1O)CC2 (stereo not given in full)
# output active

# input Record request — test call for `Nc1nc(Cl)cc(Cl)n1`
# output inactive

# input Record request — test call for `N#C/C(=C\c1ccc2c(c1)OCO2)c1ccccc1`
# output inactive

# input Record request — test call for C=CCC(OC(C)=O)c1ccc(C(C)C)cc1 (stereo not given)
# output inactive

# input Record request — test call for CCC(C)c1c(N)n(S(=O)(=O)c2ccc(C)cc2)oc1=O (stereo not given)
# output inactive

# input Record request — test call for `O=C(Nc1ccccc1)c1ccco1`
# output inactive

# input Record request — test call for `O=C(OCc1ccccc1)n1nnc2ccccc21`
# output inactive

# input Record request — test call for `Cc1cccc(C)c1NC(=S)/N=C\c1c(O)[nH]c(=O)[nH]c1=O`
# output inactive

# input Record request — test call for `Cc1cccc(-[n+]2noc(N)n2)c1`
# output inactive

# input Record request — test call for `O=Cc1ccc(O)c(O)c1`
# output inactive

# input Record request — test call for `Cc1cc(Cl)cc(Cc2cc(Cl)cc(C)c2O)c1O`
# output active

# input Record request — test call for `CCOC(=O)c1c[nH][nH]c1=O`
# output inactive

# input Record request — test call for `Cc1cc(C(=O)NN)c(C#N)c(=O)[nH]1`
# output inactive

# input Record request — test call for `c1ccc(Oc2c3ccccc3nc3ccccc23)cc1`
# output active

# input Record request — test call for `CC(=O)N(CCCCCCN(C(C)=O)C(C)=O)C(C)=O`
# output inactive

# input Record request — test call for `CC1=CC(=Nc2ccc(N(C)C)cc2)C=C(C)C1=O`
# output inactive

# input Record request — test call for `CCOC(=O)C(=O)CC(=O)c1ccccc1`
# output inactive

# input Record request — test call for `Nc1nnc2cc(F)ccc2n1`
# output inactive

# input Record request — test call for O=C(OCC1CCCO1)c1ccc([N+](=O)[O-])cc1 (stereo not given)
# output inactive

# input Record request — test call for CC(C)N1CC(=O)N2CSCC2C1=O (stereo not given)
# output inactive

# input Record request — test call for `COc1ccc(-c2csc(NC(=O)Nc3nc(-c4ccc(OC)cc4)cs3)n2)cc1`
# output inactive

# input Record request — test call for `CC(=O)N=c1ccc2nc3c(cc(N)c4ccccc43)oc-2c1`
# output active

# input Record request — test call for `O=c1nc(Nc2cccc(Cl)c2)oc2cc(Cl)oc(=O)c12`
# output inactive

# input Record request — test call for `c1ccc2[nH]c(Cc3nc4ccccc4[nH]3)nc2c1`
# output inactive

Reference source for all entries: PubChem BioAssay (NCI)
